Below, each entry is listed with its recorded protein stability index.
B1: CCDC6 (parent)
chain: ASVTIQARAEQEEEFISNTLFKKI

Variants of: B1
Assay: protein stability index of a GFP-peptide fusion (GPS, HEK-293T) (PSI 1-6); higher = more stable;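 note: lentivirally expressed fusions sorted by FACS into six bins by GFP to DsRed ratio, PSI derived from sequencing read proportions per bin multiplied by bin number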
Conditions: c terminus: a fixed tail appended
reported-property: protein stability index

mutation-label: E12P
reported-property: protein stability index
measured-value: 3.03

mutation-label: K23G
reported-property: protein stability index
measured-value: 3.21

mutation-label: V3C
reported-property: protein stability index
measured-value: 1.9

mutation-label: S2M
reported-property: protein stability index
measured-value: 2.81

mutation-label: T19H
reported-property: protein stability index
measured-value: 3.36

mutation-label: R8C
reported-property: protein stability index
measured-value: 3.27

mutation-label: I24C
reported-property: protein stability index
measured-value: 4.52

mutation-label: A7E
reported-property: protein stability index
measured-value: 4.49

mutation-label: E10C
reported-property: protein stability index
measured-value: 2.1

mutation-label: I5G
reported-property: protein stability index
measured-value: 4.75

mutation-label: V3Y
reported-property: protein stability index
measured-value: 3.42

mutation-label: T4H
reported-property: protein stability index
measured-value: 3.61

mutation-label: I5N
reported-property: protein stability index
measured-value: 4.49

mutation-label: T19F
reported-property: protein stability index
measured-value: 2.72

mutation-label: I16P
reported-property: protein stability index
measured-value: 4.35

mutation-label: A9I
reported-property: protein stability index
measured-value: 2.62

mutation-label: F15L
reported-property: protein stability index
measured-value: 3.73

mutation-label: A9S
reported-property: protein stability index
measured-value: 3.79

These data points were gathered from the supplement of paper PMC10567573.
